# System: Escherichia coli TOP10;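 also: peptides expressed intracellularly from a pBAD plasmid library in pooled LB shake-flask culture, induced with 0.3% L-arabinose, DNA abundance read by NGS, three biological replicates, DESeq2 with apeglm shrinkage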
# EXPERIMENT: shrunken log2 fold change of peptide-encoding DNA abundance (4.5 h post-induction vs induction); higher = less antimicrobial activity (less host growth inhibition)
# SETUP_CONDITIONS: time post-induction: 4.5 h; library: site-saturation at positions 5, 18, 19, 20
Response key: condition met means shrunken log2 fold change >= -0.07; condition not met means shrunken log2 fold change < -0.07.

Ask | Reported shrunken log2 fold change at or above -0.07? `RRIRSRPPRLPRPRPRPRCTPRP`
Reply | condition met

Ask | Check this sequence for shrunken log2 fold change at or above -0.07: `RRIRLRPPRLPRPRPRPVWAPRP`
Reply | condition met

Ask | Entry `RRIRTRPPRLPRPRPRPPIAPRP` : is its shrunken log2 fold change no less than -0.07?
Reply | condition met

Ask | Decide: shrunken log2 fold change of `RRIRIRPPRLPRPRPRPIVSPRP` >= -0.07?
Reply | condition not met

---
Ask | In plain terms: is recorded shrunken log2 fold change at least -0.07 for `RRIRNRPPRLPRPRPRPWHEPRP` ?
Reply | condition not met

Ask | In plain terms: is recorded shrunken log2 fold change at least -0.07 for `RRIRSRPPRLPRPRPRPFCCPRP` ?
Reply | condition not met
